# assayed.system: T1, human fXIIa (Homo sapiens, UniProt P00748)
# T1 construct: Human coagulation factors IIa (thrombin), Xa, XIa, XIIa, EGR-fXa; purchased Haematologic Technologies Inc (United States)
# T1 sequence (P00748 373-615 limits assumed): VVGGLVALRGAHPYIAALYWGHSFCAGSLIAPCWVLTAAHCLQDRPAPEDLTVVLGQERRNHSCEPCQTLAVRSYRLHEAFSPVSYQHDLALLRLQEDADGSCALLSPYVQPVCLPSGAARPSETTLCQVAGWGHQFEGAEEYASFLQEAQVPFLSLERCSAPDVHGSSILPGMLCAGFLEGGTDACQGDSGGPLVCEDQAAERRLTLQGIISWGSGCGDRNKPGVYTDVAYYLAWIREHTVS
# T1 sequence (P00748 20-372 limits assumed): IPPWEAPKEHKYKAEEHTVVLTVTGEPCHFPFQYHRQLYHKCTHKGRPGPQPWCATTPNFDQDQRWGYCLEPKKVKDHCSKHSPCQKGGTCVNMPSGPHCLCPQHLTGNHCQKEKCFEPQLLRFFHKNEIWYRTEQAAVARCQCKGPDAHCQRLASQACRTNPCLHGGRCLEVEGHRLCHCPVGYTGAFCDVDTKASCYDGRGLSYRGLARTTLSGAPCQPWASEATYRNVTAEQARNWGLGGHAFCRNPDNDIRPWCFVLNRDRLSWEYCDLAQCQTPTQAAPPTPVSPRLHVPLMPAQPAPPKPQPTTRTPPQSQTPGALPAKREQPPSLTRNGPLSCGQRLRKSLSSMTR
# assay.procedure: Chromogenic assay, fXIIa
# Assay type: biochemical
# conditions: 100 nM
readout.label: effect on fXIIa activity (in words)

[[record]]
molecule = "NAPTin-2 (protein, Sequence derived from Ancylostoma caninum or Synthetic) NPSCGENERHDECSRKECDPKCKYDGTEEKDDEKPVVCLTRVCYGDCICRDGFLRNKNGACVKAEDCELDN"
experimental_value = "without affecting"

[[record]]
molecule = "NAPTin-7 (protein, Sequence derived from Ancylostoma caninum or Synthetic) NPSCGENERHDECSRKECDPKCKYDGTEEKDDEKPVVCLTRVCYGDCICRDGFLRNKNGACVKAEDC"
experimental_value = "without affecting"

